# tested system: human CYP11B2 (Homo sapiens (Human), UniProt P19099)
# Sequence (P19099 25-503): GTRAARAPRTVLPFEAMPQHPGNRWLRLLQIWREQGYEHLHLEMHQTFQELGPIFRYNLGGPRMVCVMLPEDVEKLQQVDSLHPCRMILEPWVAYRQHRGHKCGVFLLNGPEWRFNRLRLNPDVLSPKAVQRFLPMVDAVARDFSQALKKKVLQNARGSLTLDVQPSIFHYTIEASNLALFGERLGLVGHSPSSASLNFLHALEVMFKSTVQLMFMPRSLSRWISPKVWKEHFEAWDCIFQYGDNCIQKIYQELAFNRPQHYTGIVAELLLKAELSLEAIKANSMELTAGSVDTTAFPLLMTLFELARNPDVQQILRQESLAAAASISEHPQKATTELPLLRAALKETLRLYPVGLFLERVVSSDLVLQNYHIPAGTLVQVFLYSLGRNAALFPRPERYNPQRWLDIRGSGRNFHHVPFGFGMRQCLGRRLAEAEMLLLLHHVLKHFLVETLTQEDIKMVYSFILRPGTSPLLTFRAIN
# method notes: Inhibitory effect on hCYP11B2 (aldosterone production by mitochondrial fraction of V79 cells stably expressing human CYP11B2, HTRF)
# study conditions: 0.5 μmol/L deoxycorticosterone, 150 μmol/L NADPH, 1.5-2 hours at room temperature
observable: IC50 (nM)

Task item: Report IC50 for c1ccc(COc2cnnc(N3CCOCC3)n2)cc1 [Example 256, 5-benzyloxy-3-morpholino-1,2,4-triazine] please.
Reply: 26

P = CN(CCCS(C)(=O)=O)c1nncc(-c2ccc3ccccc3c2)n1 [Example 192]
Q = CN(C)C(=O)Cn1cc(NC(=O)CN2CCN(c3nncc(-c4ccc(F)cc4)n3)CC2)cn1 [Example 71]
Task item: Hello, I am sorting some records. Could you say if P or Q has the smaller IC50 value? Let me know the label of the one you choose.
Reply: Q
(Q: 6.1 nM, P: 38 nM)

A = CC(=O)N1CCC(CNc2nncc(-c3ccc4ccccc4c3)n2)CC1 [Example 196]
B = CC(C)NC(=O)CN1CCN(c2nncc(-c3ccc(C#N)nc3)n2)CC1 [Example 215]
Task item: Hello, I am sorting some records. Could you say if A or B has the smaller IC50 value? Let me know the label of the one you choose.
Reply: B
(B: 29 nM, A: 67 nM)

P = c1nnc(N2CCOCC2)nc1CC1CCCCC1 [Example 233]
Q = Cc1ccc(-c2cnnc(N3CCN(CC(=O)Nc4cnn(CC(=O)N(C)C)c4)CC3)n2)cc1 [Example 75]
Task item: Hello, I am sorting some records. Could you say if P or Q has the smaller IC50 value? Let me know the label of the one you choose.
Reply: Q

###

# tested system: human CYP11B2 (Homo sapiens (Human), UniProt P19099)
# method notes: Inhibitory effect on hCYP11B2 (aldosterone production by mitochondrial fraction of V79 cells stably expressing human CYP11B2, HTRF)
# study conditions: 0.5 μmol/L deoxycorticosterone, 150 μmol/L NADPH, 1.5-2 hours at room temperature
pIC50: −log10 of the molar value.
observable: pIC50

Task item: Find pIC50 (human CYP11B2 (Homo sapiens (Human), UniProt P19099)) for the entry Cc1ccccc1-c1cnnc(N2CCN(c3ccc(F)cc3)CC2)n1
Reply: 7.64

Task item: CN(C)[C@H]1CC[C@H](NC(=O)C(O)C2CCN(c3nncc(-c4ccc(F)cc4)n3)CC2)CC1 (relative stereo) , same question.
Reply: 7.82

Task item: CN1CC[C@H](NC(=O)CN2CCN(c3nncc(-c4ccc(Cl)cc4)n3)CC2)CC1=O , same question.
Reply: 8.14

a = CC(C)NC(=O)CN1CCN(c2nncc(-c3ccc(C(F)(F)F)cc3)n2)CC1
b = Cc1ccccc1-c1cnnc(N2CCN(CC(=O)Nc3cccnc3)CC2)n1
c = CN(C)[C@@H]1CCC[C@H](NC(=O)CN2CCN(c3nncc(-c4ccc(F)cc4)n3)CC2)C1
Task item: Place the items in sequence of falling pIC50. List the labels, following the order given in the request.
Reply: b, a, c

###

# tested system: UniProt P19099
# method notes: Inhibitory effect on hCYP11B2 (aldosterone production by mitochondrial fraction of V79 cells stably expressing human CYP11B2, HTRF)
# study conditions: 0.5 μmol/L deoxycorticosterone, 150 μmol/L NADPH, 1.5-2 hours at room temperature
pIC50: −log10 of the molar value.
observable: pIC50

Task item: Find pIC50 (UniProt P19099) for the entry Clc1ccc(CNc2cnnc(N3CCOCC3)n2)cc1
Reply: 7.89

A = CNC(=O)CO[C@H]1CC[C@H](NC(=O)CN2CCN(c3nncc(-c4ccc(F)cc4)n3)CC2)CC1
B = CC(C)[C@@H](CO)NC(=O)CN1CCN(c2nncc(-c3ccc(C(F)(F)F)cc3)n2)CC1
C = CNC(=O)Cn1cc(NC(=O)CN2CCN(c3nncc(-c4ccc(Cl)cc4)n3)CC2)cn1
D = CNC(=O)Cn1cc(NC(=O)CN2CCN(c3nncc(-c4ccc(C)cc4)n3)CC2)cn1
Task item: List the 4 entries from lowest pIC50 to highest pIC50 value. List the labels, following the order given in the request.
Reply: B, A, D, C

1 = Cc1ccc(-c2cnnc(N3CCN(CC(=O)NC4CCN(CCNS(C)(=O)=O)CC4)CC3)n2)cc1
2 = NC(=O)N1CCC(O)(CNC(=O)CN2CCN(c3nncc(-c4ccc(Cl)cc4)n3)CC2)CC1
3 = C[C@H]1COCCC1NC(=O)CN1CCN(c2nncc(-c3ccc(Cl)cc3)n2)CC1 (some centres unmarked)
4 = Cc1nc[nH]c1CN1CCC(NC(=O)CN2CCN(c3nncc(-c4ccc(Cl)cc4)n3)CC2)CC1
Task item: Place the items in sequence of falling pIC50. List the labels, following the order given in the request.
Reply: 4, 3, 1, 2
(4: 8.96, 3: 8.21, 1: 8.00, 2: 7.72)

1 = CNC(=O)CN1CCC(NC(=O)CN2CCN(c3nncc(-c4ccc(C)cc4)n3)CC2)CC1
2 = Cc1nc[nH]c1CN1CCC(NC(=O)CN2CCN(c3nncc(-c4ccc(F)cc4)n3)CC2)CC1
Task item: # returns the entry with the larger pIC50; inputs 1 and 2 Let me know the label of the one you choose.
Reply: 1
(1: 8.00, 2: 7.74)

###

# tested system: human CYP11B2 (Homo sapiens (Human), UniProt P19099)
# method notes: Inhibitory effect on hCYP11B2 (aldosterone production by mitochondrial fraction of V79 cells stably expressing human CYP11B2, HTRF)
# study conditions: 0.5 μmol/L deoxycorticosterone, 150 μmol/L NADPH, 1.5-2 hours at room temperature
pIC50: −log10 of the molar value.
observable: pIC50

Task item: Report pIC50 for CNC(=O)Cn1cc(NC(=O)CN2CCN(c3nncc(-c4ccc(F)cc4)n3)CC2)cn1 please.
Reply: 8.35

a = CN1CC[C@H](NC(=O)CN2CCN(c3nncc(-c4ccc5c(c4)COC5)n3)CC2)CC1=O
b = Clc1ccc(-c2cnnc(N3CCN(C4CCOCC4)CC3)n2)cc1
c = CC(C)NC(=O)CN1CCN(c2nncc(-c3cccc4c3COCC4)n2)CC1
Task item: Place the items in sequence of falling pIC50. List the labels, following the order given in the request.
Reply: b, c, a

###

# tested system: human CYP11B2 (Homo sapiens (Human))
# method notes: Inhibitory effect on hCYP11B2 (aldosterone production by mitochondrial fraction of V79 cells stably expressing human CYP11B2, HTRF)
# study conditions: 0.5 μmol/L deoxycorticosterone, 150 μmol/L NADPH, 1.5-2 hours at room temperature
observable: IC50 (µM)

Record excerpt, results attached:
Task item: Report IC50 for O=C(CN1CCN(c2nncc(-c3ccc(F)cc3)n2)CC1)NC1CN(C(=O)C2(O)CC2)C1 please.
Reply: 0.011

Task item: O=C(CN1CCN(c2nncc(-c3ccc(F)cc3)n2)CC1)NC1CCN(CC2=NCCN2)CC1 , same question.
Reply: 0.016

Task item: CO[C@H]1CC[C@H](NC(=O)CN2CCN(c3nncc(-c4ccc5c(cnn5C)c4)n3)CC2)CC1 , same question.
Reply: 0.017

Task item: O=C1NCC2(CCN(c3nncc(-c4ccc5ccccc5c4)n3)CC2)O1 , same question.
Reply: 0.012

Task item: Cc1ncc(CN2CCC(NC(=O)CN3CCN(c4nncc(-c5ccc(F)cc5)n4)CC3)CC2)[nH]1 , same question.
Reply: 0.018

P = O=C(CN1CCN(c2nncc(-c3ccc(C(F)(F)F)cc3)n2)CC1)NC1CC2COCC(C1)C2O (stereo not drawn) [Example 157a]
Q = CC(C)CC(=O)NN1CCN(c2nncc(-c3ccc(Cl)cc3)n2)CC1
Task item: Hello, I am sorting some records. Could you say if P or Q has the smaller IC50 value? Let me know the label of the one you choose.
Reply: Q

a = CN1CCNC(=O)C12CCC(NC(=O)CN1CCN(c3nncc(-c4ccc(F)cc4)n3)CC1)CC2 (stereo not drawn)
b = CN(C)[C@H]1CC[C@H](NC(=O)CN2CCN(c3nncc(-c4cc(F)ccc4F)n3)CC2)CC1
Task item: Hello, I am sorting some records. Could you say if a or b has the smaller IC50 value? Let me know the label of the one you choose.
Reply: b

I = CC(=O)N[C@H]1CC[C@H](NC(=O)CN2CCN(c3nncc(-c4ccc(C)cc4)n3)CC2)CC1
II = O=C(CN1CCN(c2nncc(-c3ccc(F)cc3)n2)CC1)NC1CCN(CC(=O)N2CCOCC2)CC1
Task item: # returns the entry with the larger IC50; inputs I and II Let me know the label of the one you choose.
Reply: II
(II: 0.014 µM, I: 0.009 µM)

###

Measured IC50 of individual entries
# tested system: human CYP11B2 (Homo sapiens (Human), UniProt P19099)
# method notes: Inhibitory effect on hCYP11B2 (aldosterone production by mitochondrial fraction of V79 cells stably expressing human CYP11B2, HTRF)
# study conditions: 0.5 μmol/L deoxycorticosterone, 150 μmol/L NADPH, 1.5-2 hours at room temperature
The reply should contain only the number, in nM.

Record excerpt, results attached:
Task item: Report IC50 for O=C(CN1CCN(c2nncc(-c3ccc(F)cc3)n2)CC1)N[C@H]1CC[C@H](N2CCOCC2)CC1 please.
Reply: 8.4

Task item: O=C1CN([C@H]2CC[C@H](NC(=O)CN3CCN(c4nncc(-c5ccc(F)cc5)n4)CC3)CC2)CCN1 , same question.
Reply: 8.5

Task item: Cc1ccc(-c2cnnc(N3CCN(CC(=O)N[C@H]4CC[C@H](S(C)(=O)=O)CC4)CC3)n2)cc1 , same question.
Reply: 6.3

Field: next compound
Task item: Report IC50 for CN(C)[C@H]1CC[C@H](NC(=O)CN2CCN(c3nncc(-c4ccc(Cl)cc4)n3)CC2)CC1 please.
Reply: 7.9

meta.source: patent US10029993B2
